- System: HT29 colon
- assay.overview: NCI-60 one-dose screen, 48 h (100 = growth as untreated, 0 = no growth, -100 = all killed)
- test.parameters: 10 µM unless noted
About 83,000 compounds went through this panel and 20% of them were active in at least one assay; those are over-represented in the sample as a whole.
Below, each of the compounds is paired with its reported growth value.

[
  {
    "compound": "CCNCc1ccncc1",
    "growth [%]": 102
  },
  {
    "compound": "CCC1CCc2nc3sc(C(=O)Nc4ccccc4C)c(N)c3cc2C1 (stereo not given)",
    "growth [%]": 7.01
  },
  {
    "compound": "COc1cc(C2CC(c3c(C)[n+]([O-])c4ccccc4[n+]3[O-])=NN2)cc(OC)c1OC (stereo not given)",
    "growth [%]": 120
  },
  {
    "compound": "CCN1C(=O)N(CC)C2C1NN=c1s/c(=C3\\C(=O)N(C4CCCC4)c4ccccc43)c(=O)n12 (stereo not given)",
    "growth [%]": 1.3
  },
  {
    "compound": "O=C1c2ccccc2C(=O)c2c(N=Nc3sc(=O)[nH]c3S)cccc21",
    "growth [%]": 82.9
  },
  {
    "compound": "COc1cc2c3c(c(=O)oc2cc1OS(=O)(=O)c1ccc(C(F)(F)F)cc1)CCCCC3",
    "growth [%]": 78.8
  },
  {
    "compound": "ClC1=C(Cl)C(Cl)=C(Cl)C1=Cc1ccc(Cl)cc1Cl",
    "growth [%]": 10.1
  },
  {
    "compound": "O=S(=O)(NCCCNc1cc(-c2cn(-c3ccccc3)nc2-c2cccc(O)c2)ccn1)c1cccc2ccccc12",
    "growth [%]": -9.29
  },
  {
    "compound": "CCCC(C(=O)OCC)C(C)OC(=O)OCC (stereo not given)",
    "growth [%]": 104
  },
  {
    "compound": "Cc1ccc(S(=O)(=O)OCC(=O)Nc2ccc(C(=O)O)c(O)c2)cc1",
    "growth [%]": 98.6
  }
]
